- Tested on: μ opioid receptors (GPI)
- Experimental Details: Guinea pig isolated ileum (GPI) assay, opioid agonist;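 further: inhibition of electrically evoked contractions (0.1 Hz, 0.4 msec, supramaximal voltage) in organ baths at 37 °C, contraction height 3 min after each cumulative dose versus the 1 min before dosing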
- Condition: Table 30; read-out: GPI/LMMP Opioid(m) Agonist (IC50; nM)
Listing of recorded IC50 by entry.

Smiles Record | IC50
CSCC[C@H](NC(=O)[C@H](Cc1ccccc1)NC(=O)CNC(=O)[C@@H](C)NC(=O)[C@@H](N)Cc1c(C)cc(O)cc1C)C(=O)N1CCC[C@H]1C(=O)N[C@@H](CC(C)C)C(=O)N[C@@H](Cc1c[nH]c2ccccc12)C(=O)OCc1cc(C(F)(F)F)cc(C(F)(F)F)c1 | 100 nM
CSCC[C@H](NC(=O)[C@H](Cc1ccccc1)NC(=O)CNC(=O)[C@@H](C)NC(=O)[C@@H](N)Cc1c(C)cc(O)cc1C)C(=O)N1CCC[C@H]1C(=O)N[C@@H](CC(C)C)C(=O)N[C@@H](Cc1c[nH]c2ccccc12)C(=O)NCc1ccccc1 | 11.4 nM
CSCC[C@H](NC(=O)[C@H](Cc1ccccc1)NC(=O)CNC(=O)[C@@H](C)NC(=O)[C@@H](N)Cc1ccc(O)cc1)C(=O)N1CCC[C@H]1C(=O)N[C@@H](CC(C)C)C(=O)N[C@@H](Cc1c[nH]c2ccccc12)C(=O)NCc1ccccc1 | 61.1 nM
CSCC[C@H](NC(=O)[C@H](Cc1ccccc1)NC(=O)CNC(=O)[C@@H](C)NC(=O)[C@@H](N)Cc1c(C)cc(O)cc1C)C(=O)N1CCC[C@H]1C(=O)N[C@@H](CC(C)C)C(=O)N[C@@H](Cc1c[nH]c2ccccc12)C(=O)NCc1cc(C(F)(F)F)cc(C(F)(F)F)c1 | 18.6 nM
CSCC[C@H](NC(=O)[C@H](Cc1ccccc1)NC(=O)CNC(=O)[C@@H](C)NC(=O)[C@@H](N)Cc1ccc(O)cc1)C(=O)N1CCC[C@H]1C(=O)N[C@@H](CC(C)C)C(=O)N[C@@H](Cc1c[nH]c2ccccc12)C(=O)NCc1cc(C(F)(F)F)cc(C(F)(F)F)c1 | 488 nM
CSCC[C@H](NC(=O)[C@H](Cc1ccccc1)NC(=O)CNC(=O)[C@@H](C)NC(=O)[C@@H](N)Cc1ccc(O)cc1)C(=O)N1CCC[C@H]1C(=O)N[C@@H](CC(C)C)C(=O)N[C@@H](Cc1c[nH]c2ccccc12)C(=O)OCc1cc(C(F)(F)F)cc(C(F)(F)F)c1 | 359 nM
